Could you please report measured Vesicle rupture time, rhodamine (Rh) dye release for the items listed next?
assay: Time-lapse fluorescence microscopy imaging of peptide-induced vesicle rupture; conditions: 100 nM peptide
Numbers only, in min.

# annotated cases, reported Vesicle rupture time, rhodamine (Rh) dye release shown
{"construct sequence": "SDDWLRIIWDWVCSVVSDFKAWLSAKI (Synthetic_Anti-viral peptide derived from hepatitis C virus NS5A protein) [Peptide 5]", "experimental result": 15.25}
{"construct sequence": "AESWLWEVWDWVLHVLSDFKTCLKAKF (Synthetic_Anti-viral peptide derived from hepatitis C virus NS5A protein) [Peptide 10]", "experimental result": 10.09}

Look at each sequence and report its Vesicle rupture time, rhodamine (Rh) dye release.
1. SGSWLRDIWEWVCSILTDFKNWLSAKL (Synthetic_Anti-viral peptide derived from hepatitis C virus NS5A protein) [Peptide 4]
2. DGNWLYDIWNWVCTVLADFKLWLGAKI (Synthetic_Anti-viral peptide derived from hepatitis C virus NS5A protein) [Peptide 9]
3. SGSWLRDVWDWVCTILTDFKNWLTSKL [Peptide 3]
4. SDDWLRTIWDWVCSVLADFKAWLSAKI (Synthetic_Anti-viral peptide derived from hepatitis C virus NS5A protein) [Peptide 7]
5. SGDWLRIIWDWVCSVVSDFKTWLSAKI (Synthetic_Anti-viral peptide derived from hepatitis C virus NS5A protein) [Peptide 6]
6. SGSWLRDVWDWICTVLTDFKTWLQSKL [Peptide 2]
7. GSTWLRDIWDWVCTVLSDFRVWLKSKL (Synthetic_Anti-viral peptide derived from hepatitis C virus NS5A protein) [Peptide 11]
8. SGSWLRDIWDWICEVLSDFKTWLKAKL (Synthetic_Anti-viral peptide derived from hepatitis C virus NS5A protein) [Peptide 1]

1: 21.13; 2: 6.50; 3: 8.41; 4: 5.50; 5: 4.75; 6: 8.69; 7: 6.00; 8: 10.58

What does the record list as Vesicle rupture time, rhodamine (Rh) dye release for GDDWLHDIWDWVCIVLSDFKTWLSAKI (Synthetic_Anti-viral peptide derived from hepatitis C virus NS5A protein) [Peptide 8] ?
3.28

----------
Could you please report measured pIC50 for the items listed next?
system: DENV-1; test: Plaque reduction neutralization assay, DENV-1; type: cell-based, Dengue virus serotype 1; conditions: Vero cells; virus pre-incubated with peptide 1 h at 37° C.; read-out: DENV-1 PRNT50
One number for each entry, as −log10 of the molar value.

{"construct sequence": "SGSWLRDVWDWVCTILTDFKNWLTSKL [Peptide N3N]", "pIC50": 6.92}
{"construct sequence": "GDDWLHDIWDWVCIVLSDFKTWLSAKI [Peptide N8O]", "pIC50": 6.65}
{"construct sequence": "GSTWLRDIWDWVCTVLSDFRVWLKSKL [Peptide N11N]", "pIC50": 6.23}
{"construct sequence": "SGSWLRDIWEWVCSILTDFKNWLSAKL [Peptide O4O]", "pIC50": 6.44}

Look at each sequence and report its pIC50.
1. SDDWLRTIWDWVCSVLADFKAWLSAKI [Peptide O7O]
2. SDDWLRIIWDWVCSVVSDFKAWLSAKI [Peptide N5O]
3. SGDWLRIIWDWVCSVVSDFKTWLSAKI [Peptide N6O]
4. DGNWLYDIWNWVCTVLADFKLWLGAKI [Peptide O9O]
5. DGNWLYDIWNWVCTVLADFKLWLGAKI [Peptide N9O]
6. SGDWLRIIWDWVCSVVSDFKTWLSAKI [Peptide N6N]
7. SDDWLRIIWDWVCSVVSDFKAWLSAKI [Peptide N5N]

1. 7.44
2. 6.63
3. 6.66
4. 7.30
5. 6.86
6. 6.79
7. 6.63

Look at each sequence and report its pIC50.
1. GSTWLRDIWDWVCTVLSDFRVWLKSKL [Peptide N11O]
2. SDDWLRIIWDWVCSVVSDFKAWLSAKI [Peptide O5O]
3. GDDWLHDIWDWVCIVLSDFKTWLSAKI [Peptide N8N]

1: 6.88; 2: 7.43; 3: 7.01

Look at each sequence and report its pIC50.
1. SGSWLRDIWEWVCSILTDFKNWLSAKL [Peptide N4O]
2. SGSWLRDIWDWICEVLSDFKTWLKAKL [Peptide O1O]
3. AESWLWEVWDWVLHVLSDFKTCLKAKF [Peptide N100]
4. AESWLWEVWDWVLHVLSDFKTCLKAKF [Peptide N10N]
5. SGSWLRDIWEWVCSILTDFKNWLSAKL [Peptide N4N]
6. SGSWLRDVWDWVCTILTDFKNWLTSKL [Peptide N3O]

1. 6.56
2. 6.88
3. 6.71
4. 6.70
5. 6.55
6. 6.74

Look at each sequence and report its pIC50.
1. SGDWLRIIWDWVCSVVSDFKTWLSAKI [Peptide O6O]
2. SDDWLRTIWDWVCSVLADFKAWLSAKI [Peptide N7N]

1: 7.17; 2: 6.77

Values were extracted from patent US20250282830A1.
